Kindly supply the reported Max MFI values for the records listed here.
system.under.test: monkey GPC3 on HEK293T-monkey GPC3 cells (monkey)
measurement.notes: FACS on HEK293T-monkey GPC3 cells
Answers are plain numbers, in MFI.

Below: 2 binders and their reported Max MFI.
hAb001H2L1 (antibody, human IgG1, V domains shown) VH: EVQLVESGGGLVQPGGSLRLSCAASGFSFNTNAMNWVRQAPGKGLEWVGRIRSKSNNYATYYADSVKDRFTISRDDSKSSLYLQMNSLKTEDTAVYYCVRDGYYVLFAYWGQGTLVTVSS VL: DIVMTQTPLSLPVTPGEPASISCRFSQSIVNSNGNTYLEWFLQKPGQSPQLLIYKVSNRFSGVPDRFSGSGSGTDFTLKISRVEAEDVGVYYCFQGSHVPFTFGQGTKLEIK	33300
hAb003LH3L1a (antibody, human IgG1, V domains shown) VH: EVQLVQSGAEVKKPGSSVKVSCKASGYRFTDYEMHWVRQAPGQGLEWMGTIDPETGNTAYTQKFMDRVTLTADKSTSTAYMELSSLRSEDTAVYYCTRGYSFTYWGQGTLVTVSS VL: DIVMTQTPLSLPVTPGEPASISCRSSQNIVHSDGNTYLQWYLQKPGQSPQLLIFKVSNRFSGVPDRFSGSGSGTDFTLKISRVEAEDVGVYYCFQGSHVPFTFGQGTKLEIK	24500

Let us examine a further case.
Asked: Let me know recorded Max MFI for hAb001H1L1 (antibody, human IgG1, V domains shown) VH: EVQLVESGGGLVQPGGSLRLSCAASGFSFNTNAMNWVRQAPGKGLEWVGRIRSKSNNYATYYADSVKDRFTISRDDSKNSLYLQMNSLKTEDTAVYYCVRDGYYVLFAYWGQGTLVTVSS VL: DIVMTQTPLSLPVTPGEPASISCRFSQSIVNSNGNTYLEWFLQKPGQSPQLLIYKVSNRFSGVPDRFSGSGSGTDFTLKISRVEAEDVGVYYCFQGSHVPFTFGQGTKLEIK , thanks.
Given back: 33500
